Where do the numbers come from? From patent US20200289646A1.

The reader will find reported TDCC Average EC50 [M], OVCAR8 cells, human T cells values listed item by item below.
Target: human mesothelin (MSLN) (human) (UniProt Q13421)
Sequence (Q13421 296-606 limits assumed): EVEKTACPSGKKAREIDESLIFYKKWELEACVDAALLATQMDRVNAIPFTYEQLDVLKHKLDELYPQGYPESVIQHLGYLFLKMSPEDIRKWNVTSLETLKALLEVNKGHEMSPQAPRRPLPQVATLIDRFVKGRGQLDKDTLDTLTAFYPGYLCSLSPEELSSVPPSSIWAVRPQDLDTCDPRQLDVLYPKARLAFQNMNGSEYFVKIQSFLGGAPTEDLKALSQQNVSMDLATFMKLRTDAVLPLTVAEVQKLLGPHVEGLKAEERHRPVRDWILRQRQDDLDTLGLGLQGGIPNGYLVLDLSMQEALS
Experiment: cell-based or functional assay
// note: answer is a bare numeric in M

Recorded TDCC Average EC50 [M], OVCAR8 cells, human T cells, per entry:
Req: Looking for the measured TDCC Average EC50 [M], OVCAR8 cells, human T cells of MSLN targeting trispecific protein 2F4 (protein, part only; not given: Albumin and CD3 binders, linkers, part only) chain, part: QVQLVESGGGLVQAGGSLRLSCTTSTTFSINSMSWYRQAPGNQREPVAVITNRGTTSYADSVKGRFTISRDNARNTVYLQMDSLKPEDTAIYTCHVIADWRGYWGQGTQVTVSSHHHHHH , can you help?
Resp: 7.3e-13

Req: Can you handle MSLN targeting trispecific protein 7C4 (protein, part only; not given: Albumin and CD3 binders, linkers, part only) chain, part: QVQLVESGGGLVPSGGSLRLSCAASGATSAITNLGWYRRAPGQVREMVARISVREDKEDYEDSVKGRFTISRDNTQNLVYLQMNNLQPHDTAIYYCGAQRWGRGPGTTWGQGTQVTVSSHHHHHH next?
Resp: 1e-08

Let us examine a further case.
Req: Looking for the measured TDCC Average EC50 [M], OVCAR8 cells, human T cells of MSLN targeting trispecific protein 2A1 (protein, part only; not given: Albumin and CD3 binders, linkers, part only) chain, part: QVQPVESGGGLVQPGGSLRLSCVVSGSDFTEDAMAWYRQASGKERESVAFVSKDGKRILYLDSVRGRFTISRDIDKKTVYLQMDNLKPEDTGVYYCNSAPGAARNYWGQGTQVTVSSHHHHHH , can you help?
Resp: 1.2e-09
